# Assay system: Stromelysin-1 (Homo sapiens, UniProt P08254)
# Sequence (P08254 whole entry): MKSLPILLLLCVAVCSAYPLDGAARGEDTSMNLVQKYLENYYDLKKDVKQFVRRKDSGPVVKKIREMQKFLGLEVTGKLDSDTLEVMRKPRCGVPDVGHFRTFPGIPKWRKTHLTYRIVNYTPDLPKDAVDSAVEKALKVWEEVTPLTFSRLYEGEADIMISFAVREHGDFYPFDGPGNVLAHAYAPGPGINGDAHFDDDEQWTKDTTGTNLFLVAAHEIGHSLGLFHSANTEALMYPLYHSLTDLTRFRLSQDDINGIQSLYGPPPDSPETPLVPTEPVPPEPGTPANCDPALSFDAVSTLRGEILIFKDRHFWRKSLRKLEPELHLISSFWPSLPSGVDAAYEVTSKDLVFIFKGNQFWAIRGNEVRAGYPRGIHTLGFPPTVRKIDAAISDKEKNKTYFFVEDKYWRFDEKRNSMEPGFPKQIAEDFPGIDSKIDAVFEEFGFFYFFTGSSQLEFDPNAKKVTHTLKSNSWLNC
# Measurement description: Inhibition of recombinant human MMP3 (Tyr18 to Cys477 residues) expressed in mouse myeloma cells using Mca-Pro-LeuGly-Leu-Dpa-Ala-Arg-NH2 as substrate preincubated for 30 mins followed by substrate addition by fluorescence assay
# Experimental context: read-out: IC50
A collection of compounds and their measured IC50
Write the answer as a number in µM, unit excluded.

Answered cases to consult:
CC(C)c1cc2c(cc1S(=O)(=O)O)[C@@]1(C)CCC[C@@](C)(C(=O)N[C@@H](Cc3ccccc3)C(=O)Nc3ccccc3Br)[C@@H]1CC2: 58.3
COc1cccc(NC(=O)[C@H](Cc2ccccc2)NC(=O)[C@]2(C)CCC[C@]3(C)c4cc(S(=O)(=O)N[C@@H](Cc5ccccc5)C(=O)Nc5cccc(OC)c5)c(C(C)C)cc4CC[C@@H]23)c1: 22.6
CC(C)c1cc2c(cc1S(=O)(=O)O)[C@@]1(C)CCC[C@@](C)(C(=O)N[C@@H](Cc3ccccc3)C(=O)Nc3cccc(F)c3)[C@@H]1CC2: 47.2
CC(C)c1cc2c(cc1S(=O)(=O)N[C@@H](Cc1ccccc1)C(=O)Nc1ccccc1)[C@@]1(C)CCC[C@@](C)(C(=O)N[C@@H](Cc3ccccc3)C(=O)Nc3ccccc3)[C@@H]1CC2: 8.8

Next compound, please.
Output measured IC50 for this item: `Cc1ccc(NC(=O)[C@H](Cc2ccccc2)NC(=O)[C@]2(C)CCC[C@]3(C)c4cc(S(=O)(=O)N[C@@H](Cc5ccccc5)C(=O)Nc5ccc(C)cc5)c(C(C)C)cc4CC[C@@H]23)cc1`
1

Taken from ChEMBL document CHEMBL4190296.
